Data origin: patent US6737383B1

Test system: corn
Test: Test B pre/postemergence corn
Format: in vivo, Zea mays
Settings: Rate 500 g/ha, Postemergence; scale 0 to 10, 0 no effect, 10 complete control
Property: Plant response rating, Corn
Hey, just send me the number, nothing else.

(Q) Fill in the blank: the reported Plant response rating, Corn of CC(C)N(C(=O)n1oc(=O)n(C)c1=O)c1ccc(F)cc1F [Compound 368] is ____.
(A) 7

(Q) Lookup CC1CC1n1c(=O)on(C(=O)N(c2ccccc2)C(C)C)c1=O (stereo not drawn) [Compound 370]
(A) 5

(Q) Lookup CC(C)N(C(=O)n1oc(=O)n(CC2CCOC2)c1=O)c1ccc(F)cc1 (stereo not drawn) [Compound 375]
(A) 2

(Q) Lookup CC(C)N(C(=O)n1oc(=O)n(N2CCOCC2)c1=O)c1ccc(F)cc1 [Compound 385]
(A) 0

(Q) Lookup CC(C)N(C(=O)n1oc(=O)n(C2CCC2)c1=O)c1ccc(F)cc1F [Compound 351]
(A) 0

(Q) Lookup CC(C)N(C(=O)n1oc(=O)n(C2CC3CCC2C3)c1=O)c1ccc(F)cc1 (stereo not drawn) [Compound 327]
(A) 0

----------
Please provide measured Sugarbeets plant response rating for the entries that follow.
Test system: sugar beet
Test: Test B pre/postemergence sugar beet
Assay type: in vivo, Beta vulgaris
Settings: Preemergence, Rate 500 g/ha; scale 0 to 10, 0 is no effect, 10 is complete control
Hey, just send me the number, nothing else.

(Q) Fill in the blank: the reported Sugarbeets plant response rating of CC[Si](C)(C)Cn1c(=O)on(C(=O)N(c2ccc(Cl)cc2)C(C)C)c1=O is ____.
(A) 0

(Q) Lookup CC(C)Cn1c(=O)on(C(=O)N(c2ccccc2)C(C)C)c1=O
(A) 0

(Q) Lookup CC(C)N(C(=O)n1oc(=O)n(CCC#N)c1=O)c1ccc(Cl)cc1
(A) 0

(Q) Lookup CC(C)N(C(=O)n1oc(=O)n(C(C)C#N)c1=O)c1ccccc1 (stereo not shown)
(A) 1

----------
Please provide measured Wild oats plant response rating (0 to 10 scale) for the entries that follow.
Tested on: wild oat
Assay: Test B pre/postemergence wild oat
Assay type: in vivo, Avena fatua
Conditions: Preemergence, Rate 250 g/ha
Hey, just send me the number, nothing else.

(Q) Hello, I am looking for reported Wild oats plant response rating (0 to 10 scale) with wild oat for COCCOCn1c(=O)on(C(=O)N(c2ccc(Cl)cc2)C(C)C)c1=O . Could you help?
(A) 0

(Q) Lookup CC(C)N(C(=O)n1oc(=O)n(CCc2ccccc2)c1=O)c1ccccc1
(A) 0

(Q) Lookup CCC(=O)Cn1c(=O)on(C(=O)N(c2ccc(F)cc2F)C(C)C)c1=O
(A) 8

(Q) Lookup C=CCCCn1c(=O)on(C(=O)N(c2ccccc2)C(C)C)c1=O
(A) 2

----------
Tested on: giant foxtail
Assay: Test B pre/postemergence giant foxtail
Assay type: in vivo, Setaria faberii
Details: Postemergence, Rate 125 g/ha; scale 0 to 10, 0 is no effect, 10 is complete control
Please provide measured Giant foxtail plant response rating for the entries that follow.

(Q) Fill in the blank: the reported Giant foxtail plant response rating of CC(=O)OCCCCn1c(=O)on(C(=O)N(c2ccc(Cl)cc2)C(C)C)c1=O [Compound 536] is ____.
(A) 0

(Q) Lookup CC(C)N(C(=O)n1oc(=O)n(CCC2OCCCO2)c1=O)c1ccc(Cl)cc1 [Compound 532]
(A) 4

(Q) Lookup CCOC(=O)C=C(Cn1c(=O)on(C(=O)N(c2ccc(Cl)cc2)C(C)C)c1=O)OCC [Compound 549]
(A) 2

(Q) Lookup CCC=CCn1c(=O)on(C(=O)N(c2ccc(F)cc2F)C(C)C)c1=O [Compound 523]
(A) 2
